Tested on: SK-MEL-5
Assay: NCI tumour cell line growth inhibition, 48 h
Calls of active or inactive are those of the source. Rule as the data show it: active = GI50 up to about 1.1 µM and inactive = higher.
Outcome codes: TRUE = active, FALSE = inactive

[
  {
    "Molecule": "CC(C)NC(NC(C)C)=C(S(=O)(=O)C(F)(F)C(F)(F)C(F)(F)C(F)(F)F)S(=O)(=O)C(F)(F)C(F)(F)C(F)(F)C(F)(F)F",
    "Cat": "FALSE"
  },
  {
    "Molecule": "O=S(=O)(c1ccc2ccccc2c1)N1CCN(S(=O)(=O)c2ccc3ccccc3c2)CC1",
    "Cat": "FALSE"
  },
  {
    "Molecule": "CC(C)(CN1CCCCC1)C(=O)/C=C/c1ccccc1",
    "Cat": "FALSE"
  },
  {
    "Molecule": "CC[C@@]1(O)C(=O)OCc2c1cc1n(c2=O)Cc2c-1nc1ccc(N)cc1c2CC[Si](C)(C)C",
    "Cat": "TRUE"
  },
  {
    "Molecule": "N#CC(/C(=N/NC(=O)C(=O)NN)C(=O)Nc1nc([N+](=O)[O-])cs1)c1ccc(Cl)cc1 (configuration not stated)",
    "Cat": "FALSE"
  },
  {
    "Molecule": "C1CN2CCNCCN(CCN1)CC2",
    "Cat": "FALSE"
  },
  {
    "Molecule": "O=C(CNc1ccc(Cl)cc1Cl)Nn1c(-c2ccccc2)nc2ccccc2c1=O",
    "Cat": "FALSE"
  },
  {
    "Molecule": "CCCNC1=C2C[C@@H](C)C[C@@H](OC)[C@@H](OC(=O)CCCN)[C@H](C)/C=C(\\C)[C@@H](OC(N)=O)[C@H](OC)/C=C\\C=C(/C)C(=O)NC(=CC1=O)C2=O",
    "Cat": "FALSE"
  },
  {
    "Molecule": "O=c1oc2cc(/N=C/c3ccccc3Cl)ccc2c2ccccc12",
    "Cat": "FALSE"
  },
  {
    "Molecule": "O=C(c1ccccc1)C(c1ccccc1)C1(O)C(=O)Nc2ccccc21 (configuration not stated)",
    "Cat": "FALSE"
  },
  {
    "Molecule": "CC(C)[Si](CC1=CCCCC12C(=O)N(COCC[Si](C)(C)C)c1ccccc12)(C(C)C)C(C)C (configuration not stated)",
    "Cat": "FALSE"
  },
  {
    "Molecule": "COC1CC(OC2C(C)OC(OC3C(C)OC(OC4C(C)OC(O[C@H]5CC[C@@]6(C)C(=CC[C@]7(O)[C@@H]6C[C@@H](O)[C@@]6(C)[C@]7(O)CC[C@@]6(O)C(C)=O)C5)CC4OC)CC3OC)CC2OC)OC(C)C1O (some centres not stated)",
    "Cat": "FALSE"
  },
  {
    "Molecule": "CS(=O)(=O)CSCSSCS(C)(=O)=O",
    "Cat": "FALSE"
  },
  {
    "Molecule": "COc1cc2c(c(OC)c1OC)-c1ccc(SC)c(=O)cc1[C@@H](OC(=O)c1ccncc1)CC2",
    "Cat": "TRUE"
  },
  {
    "Molecule": "COc1ccc2oc3c(ccc[n+]3C)c(=O)c2c1",
    "Cat": "FALSE"
  },
  {
    "Molecule": "CO[C@](C(=O)OC[C@H]1[C@@H](COC(C)=O)[C@@H]2O[C@H]1c1cc3c(cc12)OCO3)(c1ccccc1)C(F)(F)F",
    "Cat": "FALSE"
  },
  {
    "Molecule": "CCOC(=O)c1nc2ccc(C(F)(F)F)cc2nc1Oc1cc(OC)c(OC)c(OC)c1",
    "Cat": "FALSE"
  }
]
